# Test system: Pseudomonas aeruginosa
# experiment: Antibacterial activity against Pseudomonas aeruginosa at 50 to 100 uM after 24 hrs by well diffusion method
# Assay type: functional
Would you mind telling me the reported inhibition zone of each entry?
Numbers only, in mm.

COC(=O)CSc1nnc(Cc2csc(NC(C)=O)n2)n1NC(=O)c1ccc(Cl)cc1 ... 16
O=C(CSc1nnc(Cc2csc(NC(=O)c3ccccc3)n2)n1NC(=O)c1cccc([N+](=O)[O-])c1)NNC(=O)c1ccccc1 ... 12
O=C(O)CCNc1nc(Cc2nnc(SCC(=O)NNC(=O)c3ccccc3)n2NC(=O)c2cccc([N+](=O)[O-])c2)cs1 ... 10
N#CCSc1nnc(Cc2csc(NC(=O)c3ccccc3)n2)n1NC(=O)c1cccc([N+](=O)[O-])c1 ... 24
O=C(O)CCNc1nc(Cc2nnc(S)n2NC(=O)c2ccc(Cl)cc2)cs1 ... 17
N#CCSc1nnc(Cc2csc(NC(=O)CCl)n2)n1NC(=O)c1cccc([N+](=O)[O-])c1 ... 24
CC(=O)Nc1nc(Cc2nnc(SCC(=O)NNC(=O)c3ccccc3)n2NC(=O)c2cccc([N+](=O)[O-])c2)cs1 ... 30
N#CCSc1nnc(Cc2csc(NCCC(=O)O)n2)n1NC(=O)c1cccc([N+](=O)[O-])c1 ... 23
CC(=O)Nc1nc(Cc2nnc(SCC(=O)N/N=C/c3ccccc3)n2NC(=O)c2cccc([N+](=O)[O-])c2)cs1 ... 31
CC(=O)NNC(=O)CSc1nnc(Cc2csc(NC(C)=O)n2)n1NC(=O)c1cccc([N+](=O)[O-])c1 ... 34

Batch request: inhibition zone per item, same order as input.
1. O=C(O)CCNc1nc(Cc2nnc(SCC(=O)N/N=C/c3ccccc3)n2NC(=O)c2cccc([N+](=O)[O-])c2)cs1
2. O=C(CSc1nnc(Cc2csc(NC(=O)c3ccccc3)n2)n1NC(=O)c1ccc(Cl)cc1)N/N=C/c1ccccc1
3. O=C(CCl)NNC(=O)CSc1nnc(Cc2csc(NC(=O)c3ccccc3)n2)n1NC(=O)c1ccc(Cl)cc1
4. CC(=O)Nc1nc(Cc2nnc(SCC(=O)N/N=C/c3ccccc3)n2NC(=O)c2ccc(Cl)cc2)cs1
5. NNC(=O)CSc1nnc(Cc2csc(NCCC(=O)O)n2)n1NC(=O)c1ccc(Cl)cc1
6. CC(=O)NNC(=O)CSc1nnc(Cc2csc(NC(C)=O)n2)n1NC(=O)c1ccc(Cl)cc1

32
24
23
20
26
19

---

# Tested on: Staphylococcus aureus
# experiment: Antibacterial activity against Staphylococcus aureus at 50 to 100 uM after 24 hrs by well diffusion method
# Type: functional
parameter: inhibition zone (mm)
Answers are plain numbers, in mm.

Some compounds with recorded inhibition zone:
COC(=O)CSc1nnc(Cc2csc(NC(=O)CCl)n2)n1NC(=O)c1cccc([N+](=O)[O-])c1 ... 26
O=C(CSc1nnc(Cc2csc(NC(=O)c3ccccc3)n2)n1NC(=O)c1ccc(Cl)cc1)NNC(=O)c1ccccc1 ... 19
CC(=O)Nc1nc(Cc2nnc(S)n2NC(=O)c2cccc([N+](=O)[O-])c2)cs1 ... 16

Batch request: inhibition zone per item, same order as input.
1. O=C(O)CCNc1nc(Cc2nnc(SCSc3nnc(Cc4csc(NCCC(=O)O)n4)n3NC(=O)c3ccc(Cl)cc3)n2NC(=O)c2ccc(Cl)cc2)cs1
2. CC(=O)Nc1nc(Cc2nnc(SCC(=O)NNC(=O)CCl)n2NC(=O)c2cccc([N+](=O)[O-])c2)cs1

1: 21; 2: 12
